# credit: patent US10118935B2

Entries with reported CC50 on MDA-MB-435
Give the quantity in µM, number only.

- Item Smiles: "C=C1C(=O)O[C@H]2[C@H]1CC/C(COC(=O)CCC(=O)NCCCCCCCCNC(=O)CCC(=O)OC/C1=C/CC[C@@]3(C)O[C@H]3[C@H]3OC(=O)C(=C)[C@@H]3CC1)=C\\CC[C@@]1(C)O[C@@H]21"
  Scale Unit: "µM"
  CC50: 7.58

Would you kindly look at the next entry?
Would you please give the reported CC50 of C=C1C(=O)O[C@H]2[C@H]1CC/C(COC(=O)CCC(=O)NCCCCCCCCCNC(=O)CCC(=O)OC/C1=C/CC[C@@]3(C)O[C@H]3[C@H]3OC(=O)C(=C)[C@@H]3CC1)=C\CC[C@@]1(C)O[C@@H]21 with MDA-MB-435? 7.25

----------
Tested on: CAKI-1
Readout Type: CC50 (µM)
Give the quantity in µM, number only.

- Molecule: "C=C1C(=O)O[C@H]2[C@H]1CC/C(COC(=O)CCC(=O)NCCCCCCCCCNC(=O)CCC(=O)OC/C1=C/CC[C@@]3(C)O[C@H]3[C@H]3OC(=O)C(=C)[C@@H]3CC1)=C\\CC[C@@]1(C)O[C@@H]21 [JVM 2-92]"
  Tested On: "CAKI-1"
  Scale Unit: "µM"
  CC50: 49.9

Would you kindly look at the next entry?
Would you please give the reported CC50 of C=C1C(=O)O[C@H]2[C@H]1CC/C(COC(=O)CCC(=O)NCCCCCCCCNC(=O)CCC(=O)OC/C1=C/CC[C@@]3(C)O[C@H]3[C@H]3OC(=O)C(=C)[C@@H]3CC1)=C\CC[C@@]1(C)O[C@@H]21 [JVM 2-87] with CAKI-1? 80.3

----------
Tested on: HCT-116
Consider the following compounds and their measured CC50 readings.
Give the quantity in µM, number only.

- Compound: "C=C1C(=O)O[C@H]2[C@H]1CC/C(COC(=O)CCC(=O)NCCCCCCCCCNC(=O)CCC(=O)OC/C1=C/CC[C@@]3(C)O[C@H]3[C@H]3OC(=O)C(=C)[C@@H]3CC1)=C\\CC[C@@]1(C)O[C@@H]21 [JVM 2-92]"
  CC50, µM: 4.97

Would you kindly look at the next entry?
Would you please give the reported CC50 of C=C1C(=O)O[C@H]2[C@H]1CC/C(COC(=O)CCC(=O)NCCCCCCCCNC(=O)CCC(=O)OC/C1=C/CC[C@@]3(C)O[C@H]3[C@H]3OC(=O)C(=C)[C@@H]3CC1)=C\CC[C@@]1(C)O[C@@H]21 [JVM 2-87] with HCT-116? 5.41

----------
Test system: UACC-257
Test: NCI 60 cell line five dose, Melanoma
Readout Type: TGI (µM)
Give the quantity in µM, number only.

Examples with their reported TGI follow.
- Item Smiles: "C=C1C(=O)O[C@H]2[C@H]1CC/C(COC(=O)CCC(=O)NCCCCCCCCCNC(=O)CCC(=O)OC/C1=C/CC[C@@]3(C)O[C@H]3[C@H]3OC(=O)C(=C)[C@@H]3CC1)=C\\CC[C@@]1(C)O[C@@H]21"
  Scale Unit: "µM"
  Reported Measurement: 5.59
- Item Smiles: "C=C1C(=O)O[C@H]2[C@H]1CC/C(COC(=O)NCCCCNC(=O)OC/C1=C/CC[C@@]3(C)O[C@H]3[C@H]3OC(=O)C(=C)[C@@H]3CC1)=C\\CC[C@@]1(C)O[C@@H]21"
  Scale Unit: "µM"
  Reported Measurement: 4.99
- Item Smiles: "C=C1C(=O)O[C@H]2[C@H]1CC/C(COC(=O)NCCCCCNC(=O)OC/C1=C/CC[C@@]3(C)O[C@H]3[C@H]3OC(=O)C(=C)[C@@H]3CC1)=C\\CC[C@@]1(C)O[C@@H]21"
  Scale Unit: "µM"
  Reported Measurement: 7.46

Would you kindly look at the next entry?
Would you please give the reported TGI of C=C1C(=O)O[C@H]2[C@H]1CC/C(COC(=O)CCC(=O)NCCCCCCCCNC(=O)CCC(=O)OC/C1=C/CC[C@@]3(C)O[C@H]3[C@H]3OC(=O)C(=C)[C@@H]3CC1)=C\CC[C@@]1(C)O[C@@H]21 with UACC-257? 4.48
